System: PC-3 cells
assay: Cell Proliferation Assay (Cell Titer Glo), PC-3 cell line
Assay type: cell-based
test.settings: Homo sapiens, PC-3, PC3 cells; read-out: CPEC50 PC3
The entries below are paired with their reported EC50.

Recorded results for 6 molecules are shown here.
{"columns": ["molecule", "EC50"],
 "data": [
  ["CC(=O)N1CCN(Cc2cncc(-c3cccc4cnc(Nc5ccc(S(N)(=O)=O)cc5)nc34)c2)CC1 [Compound 949]", "5 to 10 µM"],
  ["C#Cc1cc(OC2CCN(C(C)C)CC2)c2nc(Nc3ccc(S(N)(=O)=O)cc3)ncc2c1 [Compound 1015]", "< 5 µM"],
  ["NS(=O)(=O)c1ccc(Nc2ncc3cccc(C4=CCNCC4)c3n2)cc1 [Compound 987]", "< 5 µM"],
  ["CC(C)N1CCC(Oc2cccc3cnc(Nc4ccc(F)cc4)nc23)CC1 [Compound 1009]", "5 to 10 µM"],
  ["Cn1cc(-c2cccc3cnc(Nc4ccc(S(N)(=O)=O)cc4)nc23)cn1 [Compound 931]", "5 to 10 µM"],
  ["Cc1ccc(Nc2ncc3cccc(-c4ccc(NCCN5CCCC5)nc4)c3n2)cc1NS(C)(=O)=O [Compound 1001]", "< 5 µM"]
]}

Form field: EC50 recorded for NS(=O)(=O)c1ccc(Nc2ncc3cc(C(F)(F)F)cc(-c4ccc(N5CCNC(=O)C5)nc4)c3n2)cc1 [Compound 965] with PC-3 cells (enter value) < 5 µM

Another: CC(C)NC(=O)c1ccc(Nc2ncc3cccc(-c4ccc(NCCN5CCCC5)nc4)c3n2)cc1 [Compound 993] < 5 µM

Another: CN(C)[C@H]1CCN(C(=O)c2cncc(-c3cccc4cnc(Nc5ccc(S(N)(=O)=O)cc5)nc34)c2)C1 [Compound 978] 5 to 10 µM
